Biological target: AEA-DA lipid probe targets in Neuro2a cells (Mus musculus)
Sequence (Q91XC9 whole entry): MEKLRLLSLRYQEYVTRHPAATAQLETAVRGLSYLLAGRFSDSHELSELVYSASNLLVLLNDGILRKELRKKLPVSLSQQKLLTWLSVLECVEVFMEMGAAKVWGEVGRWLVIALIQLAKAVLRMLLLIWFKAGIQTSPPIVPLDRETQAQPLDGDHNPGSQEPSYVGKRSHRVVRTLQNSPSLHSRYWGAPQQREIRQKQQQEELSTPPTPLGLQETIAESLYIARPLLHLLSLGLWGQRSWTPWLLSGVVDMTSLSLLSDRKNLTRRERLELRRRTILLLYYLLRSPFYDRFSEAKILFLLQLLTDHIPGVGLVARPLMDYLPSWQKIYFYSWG
Details: competitor 25 μM
SILAC ratio, Pex16 overview
Give only the figure.

Please review the entries below; each comes with its answer.
CN1CCN(C(=O)c2c(-c3ccccc3)c3cc([N+](=O)[O-])ccc3n2C)CC1 [KML110]    1.4
O=C(/C=C/c1cccnc1)NCCCCC1CCN(C(=O)c2ccccc2)CC1 [FK-866, reference compound]    1.1
CN1CCN(C(=O)c2[nH]c3ccc([N+](=O)[O-])cc3c2-c2ccccc2)CC1 [MJN228]    1.5

Consider now this further compound.
GET /values?readout=SILAC ratio, Pex16&item= C=CCN(C)CCCCCCOc1ccc(C(=O)c2ccc(Br)cc2)c(F)c1 [Ro 48-8071, reference compound]
1.3
